Give inhibition for every item shown.
biological target: Platelet-activating factor acetylhydrolase (Homo sapiens) (UniProt Q13093); experiment: pPAFAH enzyme inhibitors, primary screen, biochemical, fluorescence polarization, human (AID 463082); conditions: recombinant pPAFAH, FP-rhodamine probe fluorescence polarization; at 3.39 µM; hits give high values;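 further: inhibitors block binding of the rhodamine activity-based probe so polarization drops; 0% = enzyme with DMSO and 100% = wells lacking pPAFAH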
Sequence (Q13093 whole entry, looked up): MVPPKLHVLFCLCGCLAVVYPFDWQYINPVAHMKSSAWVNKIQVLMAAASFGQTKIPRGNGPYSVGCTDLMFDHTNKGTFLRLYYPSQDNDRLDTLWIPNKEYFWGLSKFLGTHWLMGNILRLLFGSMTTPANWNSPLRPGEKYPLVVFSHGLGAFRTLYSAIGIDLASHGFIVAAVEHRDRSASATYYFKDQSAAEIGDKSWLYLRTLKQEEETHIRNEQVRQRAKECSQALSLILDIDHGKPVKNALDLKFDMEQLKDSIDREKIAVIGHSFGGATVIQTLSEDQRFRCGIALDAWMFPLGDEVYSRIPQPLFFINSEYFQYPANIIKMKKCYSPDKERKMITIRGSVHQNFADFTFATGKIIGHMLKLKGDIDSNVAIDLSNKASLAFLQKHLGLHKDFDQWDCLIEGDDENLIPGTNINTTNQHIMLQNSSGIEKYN
Among all 330,000 compounds or so, about 4,900 (1.5%) were called active. The sample as a whole holds a higher share of actives than the screen did.
One number for each entry, in %.

The following compounds have reported results that may help.
* Oc1cccc(/C=N/Nc2ccc(Cl)nn2)c1O | 54.6
* CC(C)c1ccc(Nc2nnc(SCC(=O)c3nnc(-c4ccccc4)o3)s2)cc1 | 30.8
* COc1cc(NS(=O)(=O)c2ccc(NC(C)=O)cc2)cc(OC)c1 | 2.89
* Cc1ccsc1/C=N/Nc1ccc(Cl)nn1 | 8.65

Your task in this section: give inhibition for each listed record.
1. CCN1CCN(C(=O)C2CCN(S(=O)(=O)c3cc(Cl)ccc3Cl)CC2)CC1
2. COc1ccc(C(=O)NC(=S)Nc2ccccc2N2CCN(S(C)(=O)=O)CC2)cc1OC
3. N/C(=N\S(=O)(=O)c1ccc(Cl)cc1)N1CCOCC1
4. O=C(COC(=O)Cc1ccc(F)cc1)Nc1cc(S(=O)(=O)N2CCOCC2)ccc1N1CCCC1
5. Cc1ccc(-c2ccnc3[nH]n(-c4ccccc4)c(=O)c23)cc1
6. C/C=C/C(=O)OCc1csc(CC(=O)Nc2ccccc2C)n1
7. CC(=O)Nc1ccc(S(=O)(=O)Nc2ccc(N3CCOCC3)c(F)c2)cc1
8. CCCCN1C(=O)/C(=C2/Sc3ccc(Cl)cc3N2CC)SC1=S

1. 3.87
2. 51.7
3. 7.38
4. 31
5. 2.79
6. -0.07
7. 5.29
8. 3.72

Would you mind giving inhibition for every compound in the list below?
1. O=C(O)c1cccc(NC(=S)N/N=C/c2c[nH]c3ccccc23)c1
2. COc1nc(Oc2ccc(=O)n(C)n2)nc(N(C)C)n1
3. Cc1ccc2c(c1)nnc1nnc(SCC(=O)O)n12
4. CN(C)S(=O)(=O)c1cccc(NC(=S)N/N=C/C(=O)c2ccccc2)c1
5. CN(C(=O)COC(=O)c1cc(-c2ccco2)nc2ccccc12)C1CCS(=O)(=O)C1 (stereo not drawn)

26.4
1.86
2.74
12.9
30.1
